# target: KIT (Homo sapiens, UniProt P10721)
# Sequence (P10721 26-976): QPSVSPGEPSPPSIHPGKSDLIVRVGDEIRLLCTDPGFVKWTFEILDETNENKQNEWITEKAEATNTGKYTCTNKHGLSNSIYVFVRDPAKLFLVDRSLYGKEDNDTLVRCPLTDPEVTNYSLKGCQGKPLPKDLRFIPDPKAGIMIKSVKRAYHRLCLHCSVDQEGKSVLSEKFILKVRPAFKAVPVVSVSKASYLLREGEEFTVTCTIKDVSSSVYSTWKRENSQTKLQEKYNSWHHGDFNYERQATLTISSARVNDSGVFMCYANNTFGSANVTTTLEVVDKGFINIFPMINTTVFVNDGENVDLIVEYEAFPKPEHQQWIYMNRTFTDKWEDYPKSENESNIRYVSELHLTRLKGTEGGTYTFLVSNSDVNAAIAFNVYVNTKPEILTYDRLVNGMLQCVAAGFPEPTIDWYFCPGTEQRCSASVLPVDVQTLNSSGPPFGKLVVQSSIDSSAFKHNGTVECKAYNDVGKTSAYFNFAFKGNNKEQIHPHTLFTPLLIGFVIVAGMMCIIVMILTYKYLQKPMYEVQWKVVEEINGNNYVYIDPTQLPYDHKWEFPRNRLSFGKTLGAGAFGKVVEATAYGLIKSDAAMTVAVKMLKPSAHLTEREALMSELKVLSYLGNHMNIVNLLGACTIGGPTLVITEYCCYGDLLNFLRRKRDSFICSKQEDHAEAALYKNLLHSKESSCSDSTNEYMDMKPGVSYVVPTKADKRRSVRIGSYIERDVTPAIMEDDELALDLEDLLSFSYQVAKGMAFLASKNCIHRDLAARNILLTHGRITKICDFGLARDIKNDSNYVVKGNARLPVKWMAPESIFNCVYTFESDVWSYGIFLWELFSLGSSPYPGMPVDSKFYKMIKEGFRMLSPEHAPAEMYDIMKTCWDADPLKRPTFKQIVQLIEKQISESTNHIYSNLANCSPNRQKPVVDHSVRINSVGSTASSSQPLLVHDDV
# assay_remarks: Inhibitory action on KIT (ELISA)
# test_context: recombinant human kinase
# Description: A test compound was dissolved in dimethyl sulfoxide to make a 10 mM solution, which was stored in a dark place at 4° C. until use. […] Kinase activity was measured in a mobility shift assay (MSA) method (J. Biomolecular Screening, 11, 359-368, 2006) using QuickScout Screening Assist™ (Carna Biosciences Inc., commercial kit), and enzyme-linked immunoassay (ELISA). […]
quantity_kind: IC50 (nM)
Report as a plain number; the unit nM is understood.

Solved entries (count: 5):
1) O=C(Nc1cc(Oc2ccc(NC(=O)C3(C(=O)Nc4ccc(F)cc4)CC3)c(F)c2)ccn1)N1CCC1 380
2) CN1CCC(N(C)C(=O)Nc2cc(Oc3cc(F)c(NC(=O)C4(C(=O)Nc5ccc(F)cc5)CC4)cc3F)ccn2)CC1 560
3) O=C(Nc1cc(Oc2cc(F)c(NC(=O)C3(C(=O)Nc4ccc(F)cc4)CC3)cc2F)ccn1)N1CC(O)C1 370
4) O=C(Nc1cc(Oc2cc(F)c(NC(=O)C3(C(=O)Nc4ccc(F)cc4)CC3)cc2F)ccn1)N1CC(CO)C1 140
5) CN1CCN(C2CCN(C(=O)Nc3cc(Oc4cc(F)c(NC(=O)C5(C(=O)Nc6ccc(F)cc6)CC5)cc4F)ccn3)CC2)CC1 350

State its IC50 for this molecule: CN1CCN(C2CCN(C(=O)Nc3cc(Oc4ccc(NC(=O)C5(C(=O)Nc6ccc(F)cc6)CC5)c(F)c4)ccn3)CC2)CC1 100

* * *

The molecules listed here are annotated with their pIC50.
# Test system: Human umbilical vein endothelial cells (HUVECs)
# assay_remarks: Growth inhibitory activity on human umbilical vein endothelial cells stimulated by VEGF
# Assay type: cell-based
# test_context: HUVEC, 72 h, 3 days, Cell Counting Kit-8
Scale for pIC50: -log10 of concentration given in mol/L; no unit attached.

Solved entries (count: 5):
1) CN1CCN(C2CCN(C(=O)Nc3cc(Oc4cc(F)c(NC(=O)C5(C(=O)Nc6ccc(F)cc6)CC5)cc4F)ccn3)CC2)CC1 7.70
2) O=C(Nc1cc(Oc2cc(F)c(NC(=O)C3(C(=O)Nc4ccc(F)cc4)CC3)cc2F)ccn1)N1CC(CO)C1 8.26
3) O=C(Nc1cc(Oc2cc(F)c(NC(=O)C3(C(=O)Nc4ccc(F)cc4)CC3)cc2F)ccn1)N1CC(O)C1 7.82
4) CN1CCN(C2CCN(C(=O)Nc3cc(Oc4ccc(NC(=O)C5(C(=O)Nc6ccc(F)cc6)CC5)c(F)c4)ccn3)CC2)CC1 7.09
5) O=C(Nc1cc(Oc2ccc(NC(=O)C3(C(=O)Nc4ccc(F)cc4)CC3)c(F)c2)ccn1)N1CCC1 7.42

Now examine the next entry.
State its pIC50 for this molecule: CN1CCC(N(C)C(=O)Nc2cc(Oc3cc(F)c(NC(=O)C4(C(=O)Nc5ccc(F)cc5)CC4)cc3F)ccn2)CC1 7.68

* * *

# target: VEGFR-2 tyrosine kinase (His6-VEGFR-2, cytoplasmic domain) (Homo sapiens, UniProt P35968)
# Sequence (P35968 786-1356 limits assumed): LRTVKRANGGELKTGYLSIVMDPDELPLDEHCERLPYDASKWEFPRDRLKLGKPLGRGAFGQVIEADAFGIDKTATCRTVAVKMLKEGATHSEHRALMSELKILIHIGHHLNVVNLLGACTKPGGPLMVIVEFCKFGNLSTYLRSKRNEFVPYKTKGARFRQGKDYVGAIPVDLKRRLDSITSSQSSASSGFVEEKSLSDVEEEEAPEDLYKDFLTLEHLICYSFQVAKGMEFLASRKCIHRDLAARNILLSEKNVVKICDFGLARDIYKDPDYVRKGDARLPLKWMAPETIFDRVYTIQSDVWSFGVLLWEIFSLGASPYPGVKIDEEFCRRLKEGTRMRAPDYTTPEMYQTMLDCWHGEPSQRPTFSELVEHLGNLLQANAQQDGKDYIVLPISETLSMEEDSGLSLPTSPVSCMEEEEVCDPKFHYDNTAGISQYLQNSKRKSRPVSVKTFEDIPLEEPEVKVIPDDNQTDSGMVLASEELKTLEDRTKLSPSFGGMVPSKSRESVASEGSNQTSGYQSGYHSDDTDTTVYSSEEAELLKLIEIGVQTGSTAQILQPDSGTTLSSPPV
The molecules listed here are annotated with their IC50.
Report as a plain number; the unit nM is understood.

1. O=C(Nc1cc(Oc2cc(F)c(NC(=O)C3(C(=O)Nc4ccc(F)cc4)CC3)cc2F)ccn1)N1CC(O)C1 9.5
2. CN1CCN(C2CCN(C(=O)Nc3cc(Oc4ccc(NC(=O)C5(C(=O)Nc6ccc(F)cc6)CC5)c(F)c4)ccn3)CC2)CC1 240
3. CN1CCN(C2CCN(C(=O)Nc3cc(Oc4cc(F)c(NC(=O)C5(C(=O)Nc6ccc(F)cc6)CC5)cc4F)ccn3)CC2)CC1 100

Now examine the next entry.
State its IC50 for this molecule: O=C(Nc1cc(Oc2ccc(NC(=O)C3(C(=O)Nc4ccc(F)cc4)CC3)c(F)c2)ccn1)N1CCC1 59

* * *

# target: VEGFR-3 (FLT 4) (Homo sapiens)
# Sequence (P35916 25-1363): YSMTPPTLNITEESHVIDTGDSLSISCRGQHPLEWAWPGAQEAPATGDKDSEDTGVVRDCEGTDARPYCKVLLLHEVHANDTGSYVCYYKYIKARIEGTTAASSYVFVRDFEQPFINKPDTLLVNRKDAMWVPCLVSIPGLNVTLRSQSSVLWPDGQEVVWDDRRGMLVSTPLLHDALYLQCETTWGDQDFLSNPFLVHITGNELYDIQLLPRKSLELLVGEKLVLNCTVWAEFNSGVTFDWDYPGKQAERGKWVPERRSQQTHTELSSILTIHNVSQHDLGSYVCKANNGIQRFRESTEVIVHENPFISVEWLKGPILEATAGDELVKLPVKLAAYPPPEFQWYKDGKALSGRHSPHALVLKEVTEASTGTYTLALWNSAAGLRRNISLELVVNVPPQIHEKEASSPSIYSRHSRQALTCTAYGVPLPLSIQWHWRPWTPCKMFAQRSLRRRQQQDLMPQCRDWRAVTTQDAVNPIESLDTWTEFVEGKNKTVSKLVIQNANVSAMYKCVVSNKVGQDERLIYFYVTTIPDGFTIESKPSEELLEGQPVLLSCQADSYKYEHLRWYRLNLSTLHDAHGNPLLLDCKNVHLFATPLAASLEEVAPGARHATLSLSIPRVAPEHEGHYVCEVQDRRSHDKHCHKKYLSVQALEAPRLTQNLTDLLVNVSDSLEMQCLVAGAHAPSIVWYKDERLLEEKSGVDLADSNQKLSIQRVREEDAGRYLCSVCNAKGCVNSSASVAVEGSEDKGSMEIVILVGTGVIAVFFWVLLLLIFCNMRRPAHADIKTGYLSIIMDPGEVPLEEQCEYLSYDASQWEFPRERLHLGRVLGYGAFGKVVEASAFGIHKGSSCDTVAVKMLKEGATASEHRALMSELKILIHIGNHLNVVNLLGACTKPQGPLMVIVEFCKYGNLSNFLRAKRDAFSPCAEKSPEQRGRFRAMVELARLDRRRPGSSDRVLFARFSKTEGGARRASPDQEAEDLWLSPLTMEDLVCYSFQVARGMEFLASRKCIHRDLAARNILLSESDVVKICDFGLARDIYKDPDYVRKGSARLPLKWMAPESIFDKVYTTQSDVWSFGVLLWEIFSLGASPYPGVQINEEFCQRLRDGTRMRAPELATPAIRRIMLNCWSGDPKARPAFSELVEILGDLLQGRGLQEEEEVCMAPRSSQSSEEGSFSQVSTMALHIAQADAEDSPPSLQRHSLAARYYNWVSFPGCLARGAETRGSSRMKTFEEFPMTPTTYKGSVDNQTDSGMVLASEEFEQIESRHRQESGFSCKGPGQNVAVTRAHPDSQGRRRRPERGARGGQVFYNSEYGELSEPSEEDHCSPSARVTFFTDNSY
# assay_remarks: Tyrosine kinase inhibition, mobility shift assay (MSA)
# test_context: recombinant human kinase
quantity_kind: pIC50
Scale for pIC50: -log10 of concentration given in mol/L; no unit attached.

1) O=C(Nc1cc(Oc2cc(F)c(NC(=O)C3(C(=O)Nc4ccc(F)cc4)CC3)cc2F)ccn1)N1CC(CO)C1 8.21

State its pIC50 for this compound: CN1CCC(N(C)C(=O)Nc2cc(Oc3cc(F)c(NC(=O)C4(C(=O)Nc5ccc(F)cc5)CC4)cc3F)ccn2)CC1 7.96

State its pIC50 for this compound: O=C(Nc1cc(Oc2ccc(NC(=O)C3(C(=O)Nc4ccc(F)cc4)CC3)c(F)c2)ccn1)N1CCC1 7.44

State its pIC50 for this compound: O=C(Nc1cc(Oc2cc(F)c(NC(=O)C3(C(=O)Nc4ccc(F)cc4)CC3)cc2F)ccn1)N1CC(O)C1 8.00

State its pIC50 for this compound: CN1CCN(C2CCN(C(=O)Nc3cc(Oc4cc(F)c(NC(=O)C5(C(=O)Nc6ccc(F)cc6)CC5)cc4F)ccn3)CC2)CC1 7.66

* * *

# target: UniProt:Q04912
# assay_remarks: Tyrosine kinase inhibition, mobility shift assay (MSA)
# test_context: recombinant human kinase
pIC50: −log10 of the molar value.
Param threshold (8) applies to pIC50; output y when value >= threshold, n when value < threshold.

1. O=C(Nc1cc(Oc2ccc(NC(=O)C3(C(=O)Nc4ccc(F)cc4)CC3)c(F)c2)ccn1)N1CCC1 n
2. CN1CCC(N(C)C(=O)Nc2cc(Oc3cc(F)c(NC(=O)C4(C(=O)Nc5ccc(F)cc5)CC4)cc3F)ccn2)CC1 y
3. CN1CCN(C2CCN(C(=O)Nc3cc(Oc4cc(F)c(NC(=O)C5(C(=O)Nc6ccc(F)cc6)CC5)cc4F)ccn3)CC2)CC1 y
4. O=C(Nc1cc(Oc2cc(F)c(NC(=O)C3(C(=O)Nc4ccc(F)cc4)CC3)cc2F)ccn1)N1CC(CO)C1 y

# input for lookup
Record O=C(Nc1cc(Oc2cc(F)c(NC(=O)C3(C(=O)Nc4ccc(F)cc4)CC3)cc2F)ccn1)N1CC(O)C1 ; criterion: pIC50 no lower than 8. Met? y

* * *

# target: RET (Homo sapiens, UniProt P07949)
# assay_remarks: Tyrosine kinase inhibition, mobility shift assay (MSA)
# test_context: recombinant human kinase
quantity_kind: IC50
Dear colleague, please send the value followed by its unit.

State measured IC50 of the molecule CN1CCN(C2CCN(C(=O)Nc3cc(Oc4cc(F)c(NC(=O)C5(C(=O)Nc6ccc(F)cc6)CC5)cc4F)ccn3)CC2)CC1 with RET (Homo sapiens, UniProt P07949). 38 nM

State measured IC50 of the molecule O=C(Nc1cc(Oc2ccc(NC(=O)C3(C(=O)Nc4ccc(F)cc4)CC3)c(F)c2)ccn1)N1CCC1 with RET (Homo sapiens, UniProt P07949). 99 nM

State measured IC50 of the molecule O=C(Nc1cc(Oc2cc(F)c(NC(=O)C3(C(=O)Nc4ccc(F)cc4)CC3)cc2F)ccn1)N1CC(O)C1 with RET (Homo sapiens, UniProt P07949). 44 nM

State measured IC50 of the molecule O=C(Nc1cc(Oc2cc(F)c(NC(=O)C3(C(=O)Nc4ccc(F)cc4)CC3)cc2F)ccn1)N1CC(CO)C1 with RET (Homo sapiens, UniProt P07949). 28 nM

State measured IC50 of the molecule CN1CCC(N(C)C(=O)Nc2cc(Oc3cc(F)c(NC(=O)C4(C(=O)Nc5ccc(F)cc5)CC4)cc3F)ccn2)CC1 with RET (Homo sapiens, UniProt P07949). 36 nM

* * *

# target: VEGFR-1 (FLT 1) (Homo sapiens, UniProt P17948)
# Sequence (P17948 27-1338): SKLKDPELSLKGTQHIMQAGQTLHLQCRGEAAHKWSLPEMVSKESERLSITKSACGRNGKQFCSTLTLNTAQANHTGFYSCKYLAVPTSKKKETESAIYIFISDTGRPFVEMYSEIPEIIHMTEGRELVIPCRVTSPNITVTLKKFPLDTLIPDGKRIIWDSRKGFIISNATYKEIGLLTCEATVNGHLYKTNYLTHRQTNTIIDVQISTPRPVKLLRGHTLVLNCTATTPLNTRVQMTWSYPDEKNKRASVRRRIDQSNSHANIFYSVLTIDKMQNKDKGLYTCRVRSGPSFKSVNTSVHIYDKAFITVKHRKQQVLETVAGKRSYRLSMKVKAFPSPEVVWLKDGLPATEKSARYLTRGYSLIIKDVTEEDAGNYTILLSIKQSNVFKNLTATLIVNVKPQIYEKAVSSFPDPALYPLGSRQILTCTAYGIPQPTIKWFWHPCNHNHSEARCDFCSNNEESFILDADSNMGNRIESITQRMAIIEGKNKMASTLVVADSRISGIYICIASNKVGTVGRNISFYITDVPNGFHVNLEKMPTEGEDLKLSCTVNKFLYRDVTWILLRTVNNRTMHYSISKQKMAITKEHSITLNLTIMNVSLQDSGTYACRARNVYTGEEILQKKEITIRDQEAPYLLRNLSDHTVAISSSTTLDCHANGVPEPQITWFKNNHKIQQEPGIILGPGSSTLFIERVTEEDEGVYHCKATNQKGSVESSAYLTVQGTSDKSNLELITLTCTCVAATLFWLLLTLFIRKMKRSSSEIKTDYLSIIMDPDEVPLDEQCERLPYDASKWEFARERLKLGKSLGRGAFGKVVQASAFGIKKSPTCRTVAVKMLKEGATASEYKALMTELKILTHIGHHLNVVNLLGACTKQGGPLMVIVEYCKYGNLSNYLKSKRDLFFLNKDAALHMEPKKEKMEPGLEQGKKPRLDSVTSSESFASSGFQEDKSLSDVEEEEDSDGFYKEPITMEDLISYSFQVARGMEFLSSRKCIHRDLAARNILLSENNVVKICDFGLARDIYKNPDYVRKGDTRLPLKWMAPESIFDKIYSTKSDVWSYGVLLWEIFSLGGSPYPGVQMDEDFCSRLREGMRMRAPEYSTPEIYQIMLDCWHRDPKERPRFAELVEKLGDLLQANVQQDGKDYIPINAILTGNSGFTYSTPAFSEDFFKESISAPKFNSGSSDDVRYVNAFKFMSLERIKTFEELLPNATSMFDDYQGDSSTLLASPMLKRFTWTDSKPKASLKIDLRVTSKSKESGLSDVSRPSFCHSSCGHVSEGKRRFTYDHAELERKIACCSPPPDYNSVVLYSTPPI
# assay_remarks: Tyrosine kinase inhibition, mobility shift assay (MSA)
# test_context: recombinant human kinase
quantity_kind: pIC50
Scale for pIC50: -log10 of concentration given in mol/L; no unit attached.

1) O=C(Nc1cc(Oc2cc(F)c(NC(=O)C3(C(=O)Nc4ccc(F)cc4)CC3)cc2F)ccn1)N1CC(CO)C1 7.85

State its pIC50 for this compound: CN1CCC(N(C)C(=O)Nc2cc(Oc3cc(F)c(NC(=O)C4(C(=O)Nc5ccc(F)cc5)CC4)cc3F)ccn2)CC1 7.92

State its pIC50 for this compound: O=C(Nc1cc(Oc2ccc(NC(=O)C3(C(=O)Nc4ccc(F)cc4)CC3)c(F)c2)ccn1)N1CCC1 7.15

State its pIC50 for this compound: O=C(Nc1cc(Oc2cc(F)c(NC(=O)C3(C(=O)Nc4ccc(F)cc4)CC3)cc2F)ccn1)N1CC(O)C1 7.59

State its pIC50 for this compound: CN1CCN(C2CCN(C(=O)Nc3cc(Oc4cc(F)c(NC(=O)C5(C(=O)Nc6ccc(F)cc6)CC5)cc4F)ccn3)CC2)CC1 7.68
